# assayed_target: AccD6 (carboxyltransferase beta subunit of ACCase 6) (Mycobacterium tuberculosis)
# Sequence (P9WQH5 whole entry): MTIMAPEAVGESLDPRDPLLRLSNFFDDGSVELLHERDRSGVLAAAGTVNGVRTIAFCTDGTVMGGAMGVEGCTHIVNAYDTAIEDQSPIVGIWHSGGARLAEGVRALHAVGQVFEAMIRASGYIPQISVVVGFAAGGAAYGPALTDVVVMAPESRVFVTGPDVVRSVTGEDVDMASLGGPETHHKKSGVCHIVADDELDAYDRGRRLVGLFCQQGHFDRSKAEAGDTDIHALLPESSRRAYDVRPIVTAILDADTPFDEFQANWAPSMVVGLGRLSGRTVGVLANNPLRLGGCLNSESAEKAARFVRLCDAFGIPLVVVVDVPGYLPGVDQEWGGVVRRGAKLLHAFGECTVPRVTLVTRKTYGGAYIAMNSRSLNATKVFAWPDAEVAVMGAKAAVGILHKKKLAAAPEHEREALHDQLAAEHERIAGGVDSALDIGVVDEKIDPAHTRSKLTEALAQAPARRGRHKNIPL
# Sequence (P9WPQ3 whole entry partner): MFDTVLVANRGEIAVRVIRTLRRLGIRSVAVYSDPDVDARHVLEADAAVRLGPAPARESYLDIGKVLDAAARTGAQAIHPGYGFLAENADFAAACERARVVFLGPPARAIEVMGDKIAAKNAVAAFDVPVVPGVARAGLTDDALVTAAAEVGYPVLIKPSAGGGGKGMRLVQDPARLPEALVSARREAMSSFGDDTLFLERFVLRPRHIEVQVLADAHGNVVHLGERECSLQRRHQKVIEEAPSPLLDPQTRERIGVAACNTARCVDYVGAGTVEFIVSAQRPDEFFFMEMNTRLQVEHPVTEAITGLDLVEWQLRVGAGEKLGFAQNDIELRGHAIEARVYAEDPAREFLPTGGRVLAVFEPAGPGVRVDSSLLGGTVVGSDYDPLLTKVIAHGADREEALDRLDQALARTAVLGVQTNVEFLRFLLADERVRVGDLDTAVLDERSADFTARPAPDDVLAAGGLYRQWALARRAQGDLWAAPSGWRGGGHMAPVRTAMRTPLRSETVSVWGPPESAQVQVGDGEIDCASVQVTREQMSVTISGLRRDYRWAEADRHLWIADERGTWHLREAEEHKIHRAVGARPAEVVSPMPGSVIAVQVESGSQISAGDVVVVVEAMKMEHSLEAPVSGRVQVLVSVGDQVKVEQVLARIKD
measured_quantity: IC50

Incoming: Need IC50, item `Oc1c(Cl)cc(C(c2cc(Cl)c(O)c(Cl)c2)C(c2cc(Cl)c(O)c(Cl)c2)c2cc(Cl)c(O)c(Cl)c2)cc1Cl`
Outgoing: ~8 µM
